test system: Plasmodium falciparum NF54 stage IV/V gametocytes; assay: % inhibition of gametocyte viability (PrestoBlue); higher = more inhibition; conditions: 1 µM; 48 h
property.measured: % inhibition of gametocyte viability (%)
Numbers only here, please. The scale is %.

Before answering, review these 5 worked examples.
>>> df
                                   molecule                            assayed_target                     property_measured  observed_result
0  N#C/C(=C1/SC[C@H](c2ccc(Cl)cc2Cl)S1)n1ccnc1  Plasmodium falciparum NF54 stage IV/V gametocytes  % inhibition of gametocyte viability             11.8
1      N#Cc1c(F)c(Cl)c(NCc2ccccc2)c(C#N)c1F  Plasmodium falciparum NF54 stage IV/V gametocytes  % inhibition of gametocyte viability             20.8
2      N#Cc1cc([N+](=O)[O-])ccc1Oc1ccccc1Cl  Plasmodium falciparum NF54 stage IV/V gametocytes  % inhibition of gametocyte viability               55
3  CCOC(=O)Nc1cc(NC(C)CC(C)CN(CC)CC)c2nc(-c3ccccc3)c(-c3ccccc3)nc2n1 (stereo not given)  Plasmodium falciparum NF54 stage IV/V gametocytes  % inhibition of gametocyte viability             26.4
4  CN1CCN(Cc2ccc(-c3cnc4[nH]cc(-c5ccc6[nH]ccc6c5)c4c3)cc2)CC1  Plasmodium falciparum NF54 stage IV/V gametocytes  % inhibition of gametocyte viability               10

Exercise: Looking for the measured % inhibition of gametocyte viability of CC(=O)Oc1ccccc1C(=O)Nc1ncc([N+](=O)[O-])s1 , can you help?
Solution: 14.9
